biological target: human FGF-R1 (Homo sapiens, UniProt P11362, C488A/C584S/L457V); experiment: FGF-R spectrophotometric assay
Sequence (P11362 456-766 L457V/C488A/C584S): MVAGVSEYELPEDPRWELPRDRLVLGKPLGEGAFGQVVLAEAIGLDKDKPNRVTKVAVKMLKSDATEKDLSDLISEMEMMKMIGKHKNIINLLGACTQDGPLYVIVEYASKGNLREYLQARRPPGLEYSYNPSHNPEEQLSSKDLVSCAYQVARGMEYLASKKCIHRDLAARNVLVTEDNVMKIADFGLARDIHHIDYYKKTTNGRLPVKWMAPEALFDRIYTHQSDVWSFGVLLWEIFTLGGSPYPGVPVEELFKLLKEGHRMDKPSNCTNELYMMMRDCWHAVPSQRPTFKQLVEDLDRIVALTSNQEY
metric.name: Ki (µM)

>>> print(df.to_string())
                            compound_string  unit_text  quantitative_readout
0  Cc1cccc(C(=O)Nc2cccc(Oc3ccc4c(/C=C/c5ccccc5)n[nH]c4c3)c2)c1         µM                 0.014
1  COc1cc(-c2ccc3c(/C=C/c4ccc(OC)c(OC)c4)n[nH]c3c2)ccc1O         µM                 0.027
2  CCCn1nc(C)cc1C(=O)Nc1cc(C(=O)c2ccc3c(/C=C/c4ccccn4)n[nH]c3c2)ccc1C         µM                 0.011
3  Cc1cc(C(=O)Nc2cc(Nc3ccc4c(/C=C/c5ccccn5)n[nH]c4c3)ccc2F)n(C)n1         µM                 0.079
4  CC(=O)Nc1cccc(Oc2ccc3c(/C=C/c4ccccc4)n[nH]c3c2)c1         µM                 0.049
5  CCn1nc(C)cc1C(=O)Nc1cccc(C(=O)c2ccc3c(/C=C/c4ccccn4)n[nH]c3c2)c1         µM                  0.02

----------
Reported concentration at 7 h values follow for various compounds
assay: Determination of inhibitor concentration in mouse plasma after intraperitoneal and oral dosing; type: in vivo; conditions: female, PO, 50 mg/kg, vehicle PEG400:H2O pH 2.3 30:70, read-out: Cmin (7 hr conc.)
metric.name: concentration at 7 h (ng/mL)

In [3]: df
Out[3]:
                                   compound  unit_text  qualifying_sign  quantitative_readout
0  CCn1nc(C)cc1C(=O)Nc1cccc(Oc2ccc3c(/C=C/c4ccccn4)n[nH]c3c2)c1 [Example 31(d)]      ng/mL                =                 42500
1  O=C(NCC1CC1)c1ccccc1Sc1ccc2c(/C=C/c3ccccn3)n[nH]c2c1 [Example 35(v)]      ng/mL                =                    26
2  CCCn1nc(C)cc1C(=O)Nc1cccc(C(=O)c2ccc3c(/C=C/c4ccccn4)n[nH]c3c2)c1 [Example 41(r)]      ng/mL                >                  5000

----------
assay: Determination of inhibitor concentration in mouse plasma after intraperitoneal and oral dosing; format: in vivo; details: IP, 25 mg/kg, vehicle PEG400:H2O pH 2.3 30:70
Rule: satisfied for AUClast not less than 4000 ng·h/mL, not satisfied for anything less.

In [3]: df
Out[3]:
                                   compound          class
0  C[C@@H]1C[C@H]1C(=O)Nc1cccc(C(=O)c2ccc3c(/C=C/c4ccccn4)n[nH]c3c2)c1 (racemic)      satisfied
1  C=CCONC(=O)c1ccccc1Sc1ccc2c(/C=C/c3ccccn3)n[nH]c2c1      satisfied
2  Cc1cc(C(=O)Nc2cccc(C(=O)c3ccc4c(/C=C/c5ccccn5)n[nH]c4c3)c2)n(C)n1      satisfied
3  O=C(NNC(=O)c1ccccc1Sc1ccc2c(/C=C/c3ccccn3)n[nH]c2c1)c1cccs1  not satisfied
4  Cn1cccc1C(=O)NNC(=O)c1ccccc1Sc1ccc2c(/C=C/c3ccccn3)n[nH]c2c1 [Example 35(e)]  not satisfied
5  Cc1ccc(CNC(=O)c2ccccc2Sc2ccc3c(/C=C/c4ccccn4)n[nH]c3c2)o1  not satisfied
6  C#CCNC(=O)c1ccccc1Sc1ccc2c(/C=C/c3ccccn3)n[nH]c2c1  not satisfied

----------
assay: Determination of inhibitor concentration in mouse plasma after intraperitoneal and oral dosing; assay type: in vivo; conditions: IP, 25 mg/kg, vehicle PEG400:H2O pH 2.3 30:70
Rule: Yes for Cmax not less than 2000 ng/mL, No for anything less.

                            compound_string  class
0  CCCNC(=O)c1ccccc1Sc1ccc2c(/C=C/c3ccccn3)n[nH]c2c1    Yes
1  CNC(=O)c1ccccc1Sc1ccc2c(/C=C/c3ccccn3)n[nH]c2c1    Yes
2  CCn1nc(C)cc1C(=O)Nc1cccc(Oc2ccc3c(/C=C/c4ccccn4)n[nH]c3c2)c1    Yes
3  O=C(Nc1ccccc1)c1ccccc1Sc1ccc2c(/C=C/c3ccccn3)n[nH]c2c1     No
4  O=C(Nc1cccc(Oc2ccc3c(/C=C/c4ccccn4)n[nH]c3c2)c1)c1ccccc1    Yes
5  CCn1nc(C)cc1C(=O)Nc1cccc(C(=O)c2ccc3c(/C=C/c4ccccn4)n[nH]c3c2)c1    Yes

----------
Molecular target: human CHK1 (FL-CHK1) (Homo sapiens)
Construct: C-terminally His-tagged full-length human CHK1 (FL-CHK1); made in house; host or cells: baculovirus/insect cell system
Sequence (O14757 1-476): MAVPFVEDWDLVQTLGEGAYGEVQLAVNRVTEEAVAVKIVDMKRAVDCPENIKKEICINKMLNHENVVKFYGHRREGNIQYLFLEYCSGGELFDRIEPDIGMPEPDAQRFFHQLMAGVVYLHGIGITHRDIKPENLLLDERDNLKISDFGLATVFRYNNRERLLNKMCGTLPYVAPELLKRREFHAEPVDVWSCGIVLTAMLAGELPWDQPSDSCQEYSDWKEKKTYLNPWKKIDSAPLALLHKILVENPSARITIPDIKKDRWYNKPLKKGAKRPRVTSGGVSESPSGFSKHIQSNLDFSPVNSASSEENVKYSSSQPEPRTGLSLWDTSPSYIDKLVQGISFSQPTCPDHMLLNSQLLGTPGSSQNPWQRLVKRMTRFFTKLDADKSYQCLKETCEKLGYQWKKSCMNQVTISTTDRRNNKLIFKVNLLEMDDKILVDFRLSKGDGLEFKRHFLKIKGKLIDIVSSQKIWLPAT
Test: CHK1 assay (coupled spectrophotometric, Syntide-2)
Assay type: biochemical
Conditions: Table 3; read-out: CHK-1 Ki
One threshold, 1 µM, splits the recorded Ki values: lower ones are true (1), equal or higher ones are false (0).

>>> print(df.to_string())
                                   compound                       assayed_target      class
0  O=C(NC1CC1)c1ccc2c(-c3nc4ccccc4[nH]3)n[nH]c2c1  human CHK1 (FL-CHK1) (Homo sapiens)  false (0)
1  Cc1ccc2[nH]c(-c3n[nH]c4cc(C(=O)Nc5ccc(O)cc5)ccc34)nc2c1C  human CHK1 (FL-CHK1) (Homo sapiens)  false (0)
2  C(=C\c1n[nH]c2cc(-c3ccncc3)ccc12)/c1cccc(-c2ccccc2)c1  human CHK1 (FL-CHK1) (Homo sapiens)  false (0)
3  C(=C\c1n[nH]c2cc(-c3ccncc3)ccc12)/c1ccc2ccccc2c1  human CHK1 (FL-CHK1) (Homo sapiens)  false (0)
4  O=C(Nc1ccc(O)cc1)c1ccc2c(-c3nc4cc(Cl)c(Cl)cc4[nH]3)n[nH]c2c1  human CHK1 (FL-CHK1) (Homo sapiens)  false (0)
5  COc1cccc(/C=C/c2n[nH]c3cc(-c4ccncc4)ccc23)c1 [Example 29(e)]  human CHK1 (FL-CHK1) (Homo sapiens)   true (1)

----------
Test system: human umbilical vein endothelial cells (HUVEC)
Test: HUVEC proliferation assay (VEGF-stimulated, MTT);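 further: relative to VEGF-stimulated control minus starvation-medium baseline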
Format: cell-based
Details: Library II, Y=S; 0.5 mM (column head; text: nominal 0.5 nM); crude reaction mixtures
Method: HUVEC Proliferation Assay This assay determines the ability of a test compound to inhibit the growth factor-stimulated proliferation of human umbilical vein endothelial cells (“HUVEC”). […] Cellular proliferation was quantified 72 hours later by MTT dye reduction, at which time cells were exposed for 4 hours MTT (Promega Corp.). For screening compound library plates, one or two concentrations (one well per concentration) were employed, and the % inhibition was calculated by the following formula: […]
Reported % inhibition of the proliferation of HUVEC values follow for various compounds
metric.name: % inhibition of the proliferation of HUVEC (%)

                                    compound  unit_text  quantitative_readout
 0  CC(C)(CO)CNC(=O)c1ccccc1Sc1ccc2c(/C=C/c3ccccn3)n[nH]c2c1          %                     8
 1  O=C(NC1CCCCC1)c1ccccc1Sc1ccc2c(/C=C/c3ccccn3)n[nH]c2c1          %                    12
 2  Nc1nc(NC(=O)c2ccccc2Sc2ccc3c(/C=C/c4ccccn4)n[nH]c3c2)n[nH]1          %                    −6
 3  COC(CNC(=O)c1ccccc1Sc1ccc2c(/C=C/c3ccccn3)n[nH]c2c1)OC          %                    47
 4  CCC(CC)CCCC(C)NC(=O)c1ccccc1Sc1ccc2c(/C=C/c3ccccn3)n[nH]c2c1 (stereo not drawn)          %                     3
 5  Cc1cc(NC(=O)c2ccccc2Sc2ccc3c(/C=C/c4ccccn4)n[nH]c3c2)on1          %                    26
 6  CCC(COC)NC(=O)c1ccccc1Sc1ccc2c(/C=C/c3ccccn3)n[nH]c2c1 (stereo not drawn)          %                     1
 7  C=CCC(NC(=O)c1ccc2c(-c3nc4ccccc4[nH]3)n[nH]c2c1)c1ccccn1 (stereo not drawn) [drawing 609]          %                    37
 8  CN(C)CCCCNC(=O)c1ccccc1Sc1ccc2c(/C=C/c3ccccn3)n[nH]c2c1          %                    23
 9  O=C(NCCCN1CCCCCC1)c1ccccc1Sc1ccc2c(/C=C/c3ccccn3)n[nH]c2c1          %                    25
10  O=C(NNC(=O)c1ccccc1Sc1ccc2c(/C=C/c3ccccn3)n[nH]c2c1)c1ccc[nH]1          %                    60
11  Cc1cc(NC(=O)c2ccccc2Sc2ccc3c(/C=C/c4ccccn4)n[nH]c3c2)n(C)n1          %                    39
12  O=C(NCc1cccc(F)c1)c1ccccc1Sc1ccc2c(/C=C/c3ccccn3)n[nH]c2c1 [drawing 797]          %                    81
13  CSCCCNC(=O)c1ccccc1Sc1ccc2c(/C=C/c3ccccn3)n[nH]c2c1          %                    44
14  O=C(Nc1nccs1)c1ccccc1Sc1ccc2c(/C=C/c3ccccn3)n[nH]c2c1 [drawing 740]          %                    33
15  CC1CCCC(NC(=O)c2ccccc2Sc2ccc3c(/C=C/c4ccccn4)n[nH]c3c2)C1 (stereo not drawn)          %                    69
16  O=C(NCCc1ccccc1)c1ccccc1Sc1ccc2c(/C=C/c3ccccn3)n[nH]c2c1          %                    15
17  Cc1ccc(CNC(=O)c2ccccc2Sc2ccc3c(/C=C/c4ccccn4)n[nH]c3c2)cc1          %                    20
